- assay-details: Cytotoxicity against mammalian cells (MTT)
- Assay type: cell-based, murine
- test-settings: mouse, NCTC clone 929 fibroblast cells; NCTC clone 929 cells, 48 h, 200–1.56 μM, MTT
- Procedure: Macrophages were collected from the peritoneal cavity of BALB/c mice by washing them with RPMI-1640 medium supplemented with 10% fetal calf serum and were maintained at 37 °C in a 5% CO2 humidified incubator. […] The selectivity index (SI) was determined as CC50/IC50 against amastigotes. IC50 and CC50 values were calculated using a sigmoid dose–response curve in GraphPad Prism 6.0 software (GraphPad Software, San Diego, CA, USA). […]
This listing pairs molecules with measured CC50 at 48 h.

molecule: C=CCc1cc(OC)c(OCc2ccc(OC)cc2)c(Oc2ccc(CCC)cc2OC)c1 [Compound 12]
CC50 at 48 h: > 200 µM
--
molecule: C=CCc1ccc(O)c(Oc2ccc(CC=C)cc2OC)c1 [Compound 23]
CC50 at 48 h: 129 µM
--
molecule: C=CCc1ccc(Oc2cc(CC=C)cc(OC)c2OCc2ccc(OC)cc2)cc1 [Compound 14]
CC50 at 48 h: > 200 µM
--
molecule: C=CCc1ccc(Oc2cc(CCC)cc(OC)c2OCc2ccc(OC)cc2)c(OC)c1 [Compound 18]
CC50 at 48 h: > 200 µM
--
molecule: C=CCc1cc(OC)c(OC)c(Oc2ccc(CCC)cc2OC)c1 [Compound 11]
CC50 at 48 h: > 200 µM
--
molecule: C=CCc1cc(OC)c(O)c(Oc2ccc(CCC)cc2OC)c1 [Compound 13]
CC50 at 48 h: 42 µM
--
molecule: C=CCc1cc(OC)c(OC)c(Oc2ccccc2OC)c1 [Compound 16]
CC50 at 48 h: > 200 µM
--
molecule: C=CCc1ccc(Oc2cc(CC=C)cc(OC)c2OCc2ccc(OC)cc2)c(OC)c1 [Compound 6]
CC50 at 48 h: > 200 µM
--
molecule: CCCc1ccc(Oc2cc(CCC)cc(OC)c2OCc2ccc(OC)cc2)c(OC)c1 [Compound 10]
CC50 at 48 h: > 200 µM
--
molecule: C=CCc1ccc(Oc2cc(CC=C)cc(OC)c2OCOC)c(OC)c1 [Compound 5]
CC50 at 48 h: > 200 µM

###

- assay-details: Cytotoxicity against mammalian cells (MTT)
- Assay type: cell-based, murine
- test-settings: mouse, NCTC clone 929 fibroblast cells; NCTC clone 929 cells, 48 h, 200–1.56 μM, MTT
measured-attribute: CC50 at 48 h

compound: O=C(Cn1ccnc1[N+](=O)[O-])NCc1ccccc1 [benznidazole, reference compound]
measured-attribute: CC50 at 48 h
observed-measurement: 191 µM
--
compound: C=CCc1ccc(Oc2cccc(OC)c2OC)c(OC)c1
measured-attribute: CC50 at 48 h
observed-measurement: > 200 µM
--
compound: C=CCc1cc(OC)cc(Oc2ccc(CC=C)cc2OC)c1
measured-attribute: CC50 at 48 h
observed-measurement: > 200 µM
--
compound: C=CCc1ccc(Oc2cccc(OC)c2OCc2ccc(OC)cc2)c(OC)c1
measured-attribute: CC50 at 48 h
observed-measurement: > 200 µM
--
compound: C=CCc1cc(OC)c(OCc2ccc(OC)cc2)c(Oc2ccccc2OC)c1
measured-attribute: CC50 at 48 h
observed-measurement: > 200 µM
--
compound: C=CCc1ccc(Oc2cc(CC=C)cc(OC)c2O)cc1
measured-attribute: CC50 at 48 h
observed-measurement: 123 µM
--
compound: C=CCOc1c(OC)cccc1Oc1ccc(CC=C)cc1OC
measured-attribute: CC50 at 48 h
observed-measurement: > 200 µM
--
compound: C=CCc1ccc(Oc2cc(CC=C)ccc2OCc2ccc(OC)cc2)c(OC)c1
measured-attribute: CC50 at 48 h
observed-measurement: > 200 µM
--
compound: C=CCc1ccc(Oc2cc(CCC)cc(OC)c2O)c(OC)c1
measured-attribute: CC50 at 48 h
observed-measurement: 14.2 µM
